- system-under-test: T1, recombinant purified FRα (ECL assay calibrator) (human, UniProt P15328 25-234)
- T1 construct: Calibrator of the ECL sandwich assays; also called FRα calibrator; FRα standard
- T1 sequence (P15328 25-234 limits assumed): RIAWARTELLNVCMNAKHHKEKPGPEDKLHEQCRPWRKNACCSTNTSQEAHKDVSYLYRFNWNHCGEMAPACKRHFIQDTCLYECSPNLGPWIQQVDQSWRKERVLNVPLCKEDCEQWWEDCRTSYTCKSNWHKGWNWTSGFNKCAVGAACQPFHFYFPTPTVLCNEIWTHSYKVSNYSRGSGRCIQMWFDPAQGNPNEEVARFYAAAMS
- measurement-notes: ECL sandwich on FRα, signal to background; capture 30G6.G6.G4.E9; binder = detection Ab
Measured Average of S/B of individual entries
value-type: Average of S/B

INSERT INTO measurements (binder, result) VALUES
  ('Monoclonal antibody 24H8.D3 (antibody, mouse IgG1, V domains shown, Biotin-conjugated when used as capture antibody in the ECL assay; also called ATCC PTA-123090) VH: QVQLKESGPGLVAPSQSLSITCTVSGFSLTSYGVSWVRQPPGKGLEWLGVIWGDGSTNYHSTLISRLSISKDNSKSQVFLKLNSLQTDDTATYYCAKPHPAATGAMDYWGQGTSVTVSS VL: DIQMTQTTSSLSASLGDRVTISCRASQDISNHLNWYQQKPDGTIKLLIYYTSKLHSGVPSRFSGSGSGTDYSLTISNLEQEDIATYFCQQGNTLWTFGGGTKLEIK', 273),
  ('Monoclonal antibody 26A9.C4 (antibody, mouse IgG1, V domains shown, Murine IgG1 kappa from hybridoma; also called ATCC PTA-123092) VH: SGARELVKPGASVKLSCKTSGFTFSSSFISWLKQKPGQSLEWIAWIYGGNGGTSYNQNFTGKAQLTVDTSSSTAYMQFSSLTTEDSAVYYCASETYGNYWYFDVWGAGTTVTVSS VL: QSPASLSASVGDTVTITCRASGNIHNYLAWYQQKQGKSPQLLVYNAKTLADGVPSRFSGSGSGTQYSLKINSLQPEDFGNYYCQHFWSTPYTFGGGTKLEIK', 114);
